procedureSummary: Antiproliferative activity against human KB-VIN cells assessed as cell growth inhibition after 72 hrs by sulforhodamine B assay
Type: functional, cell-based
conditionLabel: KBVIN
What IC50 was measured for each of the following?

- molecule: "C=C(C)[C@@H]1CC[C@]2(C(=O)OC)CC[C@]3(C)[C@H](CC[C@@H]4[C@@]5(C)CC[C@@](O)(C(F)(F)F)C(C)(C)[C@@H]5CC[C@]43C)[C@@H]12"
  result: "> 10 µM"
- molecule: "C=C(C)[C@@H]1CC[C@]2(C(=O)O)CC[C@]3(C)[C@H](CC[C@@H]4[C@@]5(C)C[C@@H](F)[C@H](O)C(C)(C)[C@@H]5CC[C@]43C)[C@@H]12"
  result: "6.7 µM"
- molecule: "C=C(C)[C@@H]1CC[C@]2(C(=O)O)CC[C@]3(C)[C@H](CC[C@@H]4[C@@]5(C)CC(F)[C@H](OC(=O)CC(C)(C)C(=O)O)C(C)(C)[C@@H]5CC[C@]43C)[C@@H]12 (stereo not given in full)"
  result: "> 10 µM"
- molecule: "C=C(C)[C@@H]1CC[C@]2(C(=O)OCc3ccc(Cl)cc3)CC[C@]3(C)[C@H](CC[C@@H]4[C@@]5(C)C[C@H](F)C(=O)C(C)(C)[C@@H]5CC[C@]43C)[C@@H]12"
  result: "> 40 µM"

Note: attention shifts to another entry.
molecule C=C(C)[C@@H]1CC[C@]2(C(=O)OC)CC[C@]3(C)[C@H](CC[C@@H]4[C@@]5(C)CC(F)C(=O)C(C)(C)[C@@H]5CC[C@]43C)[C@@H]12 (stereo not given in full) , IC50 observed: > 10 µM
